Value source: patent US12116358B2

# Measured On: SETD2(1434-1711) (Homo sapiens, UniProt Q9BYW2)
# Construct: SETD2 (1434-1711) Assay; catalogue N/A
# Protocol Summary: SETD2 (1434-1711) assay
# Format: biochemical
# Reported Conditions: read-out: SETD2 (1434-1711)
Parameter: IC50 (nM)

Cc1ccc(F)c2cc(C(=O)NC3C(=O)NCCc4ccccc43)[nH]c12 (stereo not shown) [compound 327]	500

a = Cc1ccc(F)c2cc(C(=O)N[C@@H]3CCC[C@H](N4CCN(C(=O)N5CCOCC5)CC4)C3)[nH]c12 [compound 828]
b = Cc1ccc(F)c2cc(C(=O)Nc3cccc(N4CCC(N5CCC5)C4)c3)[nH]c12 (stereo not shown) [compound 178]
## Task Two entries are listed, a and b . Which one carries the higher IC50? Could you answer with the label of the item you picked?
## Result a
(a: 20 nM, b: 10 nM)

* * *

# Measured On: SETD2(1434-1711) (Homo sapiens)
# Construct: SETD2 (1434-1711) Assay; catalogue N/A
# Sequence (Q9BYW2 1434-1711): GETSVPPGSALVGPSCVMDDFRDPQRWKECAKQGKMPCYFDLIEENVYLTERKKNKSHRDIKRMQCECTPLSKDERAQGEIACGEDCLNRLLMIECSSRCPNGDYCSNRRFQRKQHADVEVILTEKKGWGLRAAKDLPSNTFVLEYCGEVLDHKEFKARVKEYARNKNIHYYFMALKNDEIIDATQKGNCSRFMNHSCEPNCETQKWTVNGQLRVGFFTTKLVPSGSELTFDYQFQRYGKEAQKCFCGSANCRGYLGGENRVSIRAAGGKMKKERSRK
# Protocol Summary: SETD2 (1434-1711) assay
# Type: biochemical
# Reported Conditions: read-out: SETD2 (1434-1711)
pIC50: −log10 of the molar value.
Parameter: pIC50

Please review the following examples before continuing.
Cc1ccc(F)c2cc(C(=O)Nc3cccc(N4CCN(C(C)C)C(=O)C4)c3)[nH]c12 [compound 201]	7.05
Cc1ccc(F)c2cc(C(=O)Nc3cccc(NC(=O)C4CCCN4)c3)[nH]c12 (centres unmarked) [compound 314]	7.40
Cc1ccc(F)c2cc(C(=O)Nc3cccc(N4CCC(CCCN)CC4)c3)[nH]c12 [compound 150]	7.70
CCC(=O)N1CCN(c2cccc(NC(=O)c3cc4c(F)ccc(C)c4[nH]3)c2)CC1 [compound 36]	7.52
Cc1ccc(F)c2cc(C(=O)Nc3cccc(N4CCN(CC5CC5)CC4)c3)[nH]c12 [compound 199]	7.30

a = Cc1cccc2cc(C(=O)N[C@H]3CC[C@H](NS(=O)(=O)CCN)CC3)[nH]c12 [compound 661]
b = Cc1ccc(F)c2cc(C(=O)Nc3cccc(N4CCN(C(C)C)CC4)c3)[nH]c12 [compound 243]
## Task Two entries are listed, a and b . Which one carries the higher pIC50? Could you answer with the label of the item you picked?
## Result b
(b: 7.30, a: 4.54)

* * *

# Measured On: SETD2(1434-1711) (Homo sapiens)
# Construct: SETD2 (1434-1711) Assay; catalogue N/A
# Sequence (Q9BYW2 1434-1711): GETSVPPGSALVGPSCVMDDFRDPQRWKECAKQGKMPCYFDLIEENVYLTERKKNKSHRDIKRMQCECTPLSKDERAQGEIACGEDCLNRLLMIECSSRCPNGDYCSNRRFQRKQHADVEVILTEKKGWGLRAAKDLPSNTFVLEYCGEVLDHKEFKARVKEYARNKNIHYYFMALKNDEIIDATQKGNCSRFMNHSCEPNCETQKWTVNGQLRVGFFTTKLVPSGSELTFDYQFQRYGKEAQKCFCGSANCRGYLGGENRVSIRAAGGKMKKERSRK
# Protocol Summary: SETD2 (1434-1711) assay
# Type: biochemical
# Reported Conditions: read-out: SETD2 (1434-1711)
Parameter: IC50 (nM)

Cc1ccc(F)c2cc(C(=O)N[C@@H]3CCC[C@@H](N4CCN(C(=O)N5CCOCC5)CC4)C3)[nH]c12 [compound 829]	1500
Cc1ccc(F)c2cc(C(=O)N[C@@H]3CCC[C@H](N4CCN(C(=O)OC5CCOCC5)CC4)C3)[nH]c12 [compound 999]	10
Cc1ccc(F)c2cc(C(=O)Nc3cccc(N4CCN(C(=O)N(C)C)CC4)c3)[nH]c12 [compound 55]	50
Cc1ccc(F)c2cc(C(=O)N[C@@H]3CCC[C@H](N4CC[C@H](N(CCO)S(C)(=O)=O)C4)C3)[nH]c12 [compound 1061]	20
Cc1cccc2cc(C(=O)NC3C[C@@H]4CC[C@H]3C4)[nH]c12 (stereo partly shown) [compound 654]	25100

1 = Cc1ccc(C)c2[nH]c(C(=O)N[C@H]3CC[C@H](NC(=O)CCN)CC3)cc12 [compound 644]
2 = CCC(=O)N1CCN([C@H]2CCC[C@@H](NC(=O)c3cc4c(F)ccc(C)c4[nH]3)C2)CC1 [compound 839]
## Task I'm curious, which of these has a smaller IC50 number: 1 or 2 ? Could you answer with the label of the item you picked?
## Result 2
(2: 10 nM, 1: 19500 nM)
